# test-protocol: Oral bioavailability in Sprague-Dawley rat at 50 mg/kg
# Type: ADME, organism-based
# recorded-conditions: in vivo
reported-metric: bioavailability (%)

[[record]]
structure_as_smiles = "O=C(COc1ccc(/C=C2\\SC(=O)NC2=O)cc1)Nc1cccc(Cl)c1"
result_units = "%"
value_measured = 18.1


====

Reported IC50 values for a set of molecules
# test-target: Nitric oxide synthase, inducible (Mus musculus, UniProt P29477)
reported-metric: IC50 (µM)

[[record]]
structure_as_smiles = "O=C(COc1ccc(/C=C2\\SC(=O)NC2=O)cc1)Nc1cccc(Cl)c1"
test_target = "Nitric oxide synthase, inducible (Mus musculus, UniProt P29477)"
value_measured = 23.6

[[record]]
structure_as_smiles = "O=C(COc1ccc(/C=C2\\SC(=O)NC2=O)cc1)Nc1cccc2ccccc12"
test_target = "Nitric oxide synthase, inducible (Mus musculus, UniProt P29477)"
value_measured = 40

[[record]]
structure_as_smiles = "O=C(COc1ccc(/C=C2\\SC(=O)NC2=O)cc1)Nc1cc(Cl)cc(Cl)c1"
test_target = "Nitric oxide synthase, inducible (Mus musculus, UniProt P29477)"
value_measured = 57.4

[[record]]
structure_as_smiles = "O=C(COc1ccc(/C=C2\\SC(=O)NC2=O)cc1)Nc1ccc(F)c(F)c1"
test_target = "Nitric oxide synthase, inducible (Mus musculus, UniProt P29477)"
value_measured = 34.1


====

# test-protocol: Tmax in Sprague-Dawley rat at 50 mg/kg, po
# Type: ADME, organism-based
# Design: dose 50 mg/kg, route oral
# recorded-conditions: in vivo
reported-metric: Tmax (min)

[[record]]
structure_as_smiles = "O=C(COc1ccc(/C=C2\\SC(=O)NC2=O)cc1)Nc1cccc(Cl)c1"
value_measured = 10.8


====

# Tested on: RAW264.7
# test-protocol: Cytotoxicity against LPS-stimulated mouse RAW264.7 cells after 24 hrs by MTT assay
# Type: cell-based
# recorded-conditions: RAW264.7, 24 h
pIC50: −log10 of the molar value.
reported-metric: pIC50

[[record]]
structure_as_smiles = "O=C(COc1ccc(/C=C2\\SC(=O)NC2=O)cc1)Nc1cccc(Cl)c1"
reported_metric = "pIC50"
value_measured = "< 4.00"

[[record]]
structure_as_smiles = "O=C(COc1ccc(/C=C2\\SC(=O)NC2=O)cc1)Nc1cccc2ccccc12"
reported_metric = "pIC50"
value_measured = 4.26

[[record]]
structure_as_smiles = "COc1ccc2c(c1)c(CC(=O)O)c(C)n2C(=O)c1ccc(Cl)cc1"
reported_metric = "pIC50"
value_measured = "< 4.00"

[[record]]
structure_as_smiles = "O=C(COc1ccc(/C=C2\\SC(=O)NC2=O)cc1)Nc1ccc(F)c(F)c1"
reported_metric = "pIC50"
value_measured = "< 4.00"

[[record]]
structure_as_smiles = "O=C(COc1ccc(/C=C2\\SC(=O)NC2=O)cc1)Nc1cc(Cl)cc(Cl)c1"
reported_metric = "pIC50"
value_measured = "< 4.00"


====

Reported inhibition values for a set of compounds
# test-target: Nitric oxide synthase, inducible (Mus musculus)
# test-protocol: Inhibition of iNOS-mediated nitric oxide production in LPS-stimulated mouse RAW 264.7 cells treated 2 hrs before LPS challenge measured after 18 hrs by Griess reaction method relative to control
# Assay type: cell-based
# Set-up: concentration or dose not given beside the values
# recorded-conditions: concentration not given here
reported-metric: inhibition (%)

[[record]]
compound = "COc1ccc2c(c1)c(CC(=O)O)c(C)n2C(=O)c1ccc(Cl)cc1 [INDOMETHACIN]"
test_target = "Nitric oxide synthase, inducible (Mus musculus)"
reported_metric = "inhibition"
result_units = "%"
value_measured = 63.2

[[record]]
compound = "O=C(COc1ccc(/C=C2\\SC(=O)NC2=O)cc1)Nc1cc(Cl)cc(Cl)c1"
test_target = "Nitric oxide synthase, inducible (Mus musculus)"
reported_metric = "inhibition"
result_units = "%"
value_measured = 72

[[record]]
compound = "O=C(COc1ccc(/C=C2\\SC(=O)NC2=O)cc1)Nc1cccc2ccccc12"
test_target = "Nitric oxide synthase, inducible (Mus musculus)"
reported_metric = "inhibition"
result_units = "%"
value_measured = 70.9

[[record]]
compound = "O=C(COc1ccc(/C=C2\\SC(=O)NC2=O)cc1)Nc1ccccc1"
test_target = "Nitric oxide synthase, inducible (Mus musculus)"
reported_metric = "inhibition"
result_units = "%"
value_measured = 55.3

[[record]]
compound = "O=C(COc1ccc(/C=C2\\SC(=O)NC2=O)cc1)NC1CCCCC1"
test_target = "Nitric oxide synthase, inducible (Mus musculus)"
reported_metric = "inhibition"
result_units = "%"
value_measured = 47.8

[[record]]
compound = "CN(C(=O)COc1ccc(/C=C2\\SC(=O)NC2=O)cc1)c1ccccc1"
test_target = "Nitric oxide synthase, inducible (Mus musculus)"
reported_metric = "inhibition"
result_units = "%"
value_measured = 51

[[record]]
compound = "O=C(COc1ccc(/C=C2\\SC(=O)NC2=O)cc1)Nc1ccc(F)cc1"
test_target = "Nitric oxide synthase, inducible (Mus musculus)"
reported_metric = "inhibition"
result_units = "%"
value_measured = 57.9

[[record]]
compound = "O=C(COc1ccc(/C=C2\\SC(=O)NC2=O)cc1)Nc1ccc2ccccc2c1"
test_target = "Nitric oxide synthase, inducible (Mus musculus)"
reported_metric = "inhibition"
result_units = "%"
value_measured = 45.1


====

# test-target: Prostaglandin G/H synthase 2 (Mus musculus, UniProt Q05769)
# Sequence (Q05769 whole entry): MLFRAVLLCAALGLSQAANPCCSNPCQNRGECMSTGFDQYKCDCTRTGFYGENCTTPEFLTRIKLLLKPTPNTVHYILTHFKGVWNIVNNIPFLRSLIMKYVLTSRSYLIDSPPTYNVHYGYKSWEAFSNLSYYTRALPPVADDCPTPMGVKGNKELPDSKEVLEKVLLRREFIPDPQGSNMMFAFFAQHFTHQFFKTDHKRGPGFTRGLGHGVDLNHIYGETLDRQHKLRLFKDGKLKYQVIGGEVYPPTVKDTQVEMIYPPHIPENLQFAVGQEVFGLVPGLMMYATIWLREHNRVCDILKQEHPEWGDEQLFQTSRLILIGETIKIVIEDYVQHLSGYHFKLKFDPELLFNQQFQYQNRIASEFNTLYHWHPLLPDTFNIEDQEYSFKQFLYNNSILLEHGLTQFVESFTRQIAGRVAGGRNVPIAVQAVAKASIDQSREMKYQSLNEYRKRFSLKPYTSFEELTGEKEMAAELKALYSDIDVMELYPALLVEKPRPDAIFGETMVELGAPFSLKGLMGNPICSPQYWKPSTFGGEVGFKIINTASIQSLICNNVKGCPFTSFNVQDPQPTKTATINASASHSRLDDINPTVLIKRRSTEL
# test-protocol: Inhibition of COX2-mediated PGE2 production in LPS-stimulated mouse RAW 264.7 cells after 24 hrs by ELISA
# Format: cell-based
reported-metric: IC50 (µM)

[[record]]
structure_as_smiles = "O=C(COc1ccc(/C=C2\\SC(=O)NC2=O)cc1)Nc1cc(Cl)cc(Cl)c1"
reported_metric = "IC50"
result_units = "µM"
value_measured = 14.8

[[record]]
structure_as_smiles = "O=C(COc1ccc(/C=C2\\SC(=O)NC2=O)cc1)Nc1cccc2ccccc12"
reported_metric = "IC50"
result_units = "µM"
value_measured = 16.1

[[record]]
structure_as_smiles = "O=C(COc1ccc(/C=C2\\SC(=O)NC2=O)cc1)Nc1ccc(F)c(F)c1"
reported_metric = "IC50"
result_units = "µM"
value_measured = 7.12

[[record]]
structure_as_smiles = "O=C(COc1ccc(/C=C2\\SC(=O)NC2=O)cc1)Nc1cccc(Cl)c1"
reported_metric = "IC50"
result_units = "µM"
value_measured = 4.16


====

# test-target: Nitric oxide synthase, inducible (Mus musculus, UniProt P29477)
# Sequence (P29477 whole entry): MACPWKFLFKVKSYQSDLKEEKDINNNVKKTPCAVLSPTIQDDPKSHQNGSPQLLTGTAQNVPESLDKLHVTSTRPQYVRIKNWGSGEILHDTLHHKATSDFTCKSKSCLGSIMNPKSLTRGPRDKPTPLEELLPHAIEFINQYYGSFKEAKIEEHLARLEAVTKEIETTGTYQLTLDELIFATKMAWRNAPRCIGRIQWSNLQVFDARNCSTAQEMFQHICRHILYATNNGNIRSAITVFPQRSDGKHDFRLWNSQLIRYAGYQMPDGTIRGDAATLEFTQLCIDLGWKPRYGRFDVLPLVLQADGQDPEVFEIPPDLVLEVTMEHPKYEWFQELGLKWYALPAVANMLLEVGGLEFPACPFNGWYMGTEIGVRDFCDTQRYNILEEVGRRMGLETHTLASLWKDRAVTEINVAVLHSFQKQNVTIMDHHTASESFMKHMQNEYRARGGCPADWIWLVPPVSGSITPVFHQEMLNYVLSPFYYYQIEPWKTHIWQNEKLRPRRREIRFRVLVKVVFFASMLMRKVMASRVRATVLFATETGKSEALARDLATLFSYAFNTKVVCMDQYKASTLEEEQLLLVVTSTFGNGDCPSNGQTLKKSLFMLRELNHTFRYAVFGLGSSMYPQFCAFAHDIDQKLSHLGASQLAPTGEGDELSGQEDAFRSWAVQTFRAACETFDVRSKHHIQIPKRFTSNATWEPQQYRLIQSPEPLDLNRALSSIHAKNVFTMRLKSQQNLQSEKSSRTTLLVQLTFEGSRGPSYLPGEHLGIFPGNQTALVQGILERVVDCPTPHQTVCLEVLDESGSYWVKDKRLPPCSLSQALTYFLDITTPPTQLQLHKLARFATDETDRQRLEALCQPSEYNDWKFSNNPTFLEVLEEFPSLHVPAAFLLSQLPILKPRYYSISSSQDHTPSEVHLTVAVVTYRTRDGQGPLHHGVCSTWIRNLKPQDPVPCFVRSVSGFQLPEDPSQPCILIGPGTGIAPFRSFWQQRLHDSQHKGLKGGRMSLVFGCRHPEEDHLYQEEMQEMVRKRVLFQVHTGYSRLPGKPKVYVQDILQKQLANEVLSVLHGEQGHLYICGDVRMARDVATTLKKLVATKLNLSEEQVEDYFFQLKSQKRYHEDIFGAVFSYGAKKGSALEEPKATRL
pIC50: −log10 of the molar value.
reported-metric: pIC50

[[record]]
structure_as_smiles = "O=C(COc1ccc(/C=C2\\SC(=O)NC2=O)cc1)Nc1cccc(Cl)c1"
value_measured = 5.06

[[record]]
structure_as_smiles = "O=C(COc1ccc(/C=C2\\SC(=O)NC2=O)cc1)Nc1cccc2ccccc12"
value_measured = 4.68

[[record]]
structure_as_smiles = "O=C(COc1ccc(/C=C2\\SC(=O)NC2=O)cc1)Nc1ccc(F)c(F)c1"
value_measured = 4.86

[[record]]
structure_as_smiles = "O=C(COc1ccc(/C=C2\\SC(=O)NC2=O)cc1)Nc1cc(Cl)cc(Cl)c1"
value_measured = 4.58


Attribution: ChEMBL document CHEMBL1765006
